Source of measurements: patent US20050059087A1

Target: EGFRvIII, full length, expressed by transfected cells (NR6 M, H1477, 300.19/EGFRvIII) (human, UniProt P00533 298-1210)
Experiment: cell-based or functional assay
measured property: FACS Geometric mean, With glutathione 4° C. (geometric mean)
Report the value in geometric mean with no unit label.

SC-EGFRvIII-XG2-170 (antibody, human IgG1, V domains shown, XenoMax-derived from an XMG2 mouse; also called SC170; sc170) VH: QVQLQQSGPGLVKPSQTLSLTCAISGDSVSSNNAAWNWIRQSPARGLEWLGRTYYRSKWYNDYVVSVKSRITINPDTSKNQFSLQLNSVTPEDTAVYYCVRATAFDYWGQGTLVTVSS VL: AIVLTQTPLSSPVTLGQPASISCRSSQSLVHRDGNTYLSWLQQRPGQPPRLLIYKISNRFSGVPDRFSGSGAGTDFTLKISRVEPDDVGVYYCMHTTQLPWTFGQGTKVEIK; 4.67

# input for lookup
## Task Fill in the blank: the reported FACS Geometric mean, With glutathione 4° C. of SC-EGFRvIII-XG2-150 (antibody, human IgG1, V domains shown, XenoMax-derived from an XMG2 mouse; also called sc150; 182D5) VH: QVQLQQSGPGLVKPSQTLSLTCAISGDSVSSYSSAWNWIRQSPSRGLEWLGRAYHRSRWYYEYAVSVKSRINITPDTSKNQFSLQLNSVTPEDTAVYYCARGSRFDYWGQGTLVTVSS VL: DIVMTQTPLSSPVTLGQPASISCRSSQSLVHRDGNTYLSWLQQRPGQPPRLLIYKISNRFSGVPDRFSGSGAGTDFTLKISRVEAEDVGIYFCMHTTQFPWTFGQGTRVEIK is ____.
## Result 4.66
